Target: Endonuclease 8-like 2 (Homo sapiens);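 note: fluorescence at 594 nm reports NEIL2 cutting and release of a quenched double-stranded DNA oligo substrate, reduced signal read as inhibition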
Conditions: Compound Concentration 10.0 uM, Hit No
Description: Inhibition of NEIL2 by quantifying inhibition of NEIL2-mediated cleavage and dissociation of quenched duplex DNA oligonucleotides, measured as fluorescence at 594 nm.
MEASUREMENT KIND: inhibition (%)

{"MOLECULE": "O=C(O)CCC/C=C\\CC1C(O)CC(O)C1/C=C/C(O)COc1cccc(Cl)c1 (centres undefined)", "TARGET": "Endonuclease 8-like 2 (Homo sapiens)", "UNIT OF MEASURE": "%", "OBSERVED MEASUREMENT": -0.234}
{"MOLECULE": "NC(CCP(=O)(O)O)C(=O)O (racemic)", "TARGET": "Endonuclease 8-like 2 (Homo sapiens)", "UNIT OF MEASURE": "%", "OBSERVED MEASUREMENT": -9.22}
{"MOLECULE": "O=C(Nc1cc(C(F)(F)F)cc(C(F)(F)F)c1)c1cc(Cl)ccc1O", "TARGET": "Endonuclease 8-like 2 (Homo sapiens)", "UNIT OF MEASURE": "%", "OBSERVED MEASUREMENT": -3.41}
{"MOLECULE": "CC1=C2C[C@H]3[C@@H](CC=C4C[C@@H](O)CC[C@@]43C)[C@@H]2CC[C@]12O[C@@H]1C[C@H](C)CN[C@H]1[C@H]2C", "TARGET": "Endonuclease 8-like 2 (Homo sapiens)", "UNIT OF MEASURE": "%", "OBSERVED MEASUREMENT": 1.26}
{"MOLECULE": "O=S1(=O)c2cccc3cccc(c23)N1CCCN1CCN(c2ccc(F)cc2)CC1", "TARGET": "Endonuclease 8-like 2 (Homo sapiens)", "UNIT OF MEASURE": "%", "OBSERVED MEASUREMENT": -0.483}
{"MOLECULE": "CSCC[C@H](NC(=O)[C@H](Cc1ccc(O)cc1)NC(=O)[C@H](CCCCN)NC(=O)[C@@H](N)Cc1c[nH]c2ccccc12)C(=O)N[C@H](C(=O)N[C@H](CCSC)C(N)=O)C(C)C", "TARGET": "Endonuclease 8-like 2 (Homo sapiens)", "UNIT OF MEASURE": "%", "OBSERVED MEASUREMENT": -4.17}
{"MOLECULE": "COc1cc([N+](=O)[O-])ccc1NC(=O)c1ccccc1O", "TARGET": "Endonuclease 8-like 2 (Homo sapiens)", "UNIT OF MEASURE": "%", "OBSERVED MEASUREMENT": 8.06}
{"MOLECULE": "CCCCC/C=C\\C/C=C\\C/C=C\\C/C=C\\CCCC(=O)OC(CO)CO", "TARGET": "Endonuclease 8-like 2 (Homo sapiens)", "UNIT OF MEASURE": "%", "OBSERVED MEASUREMENT": 12}
{"MOLECULE": "CC[C@@H](C[C@H]1COC(N)=N1)c1ccccc1", "TARGET": "Endonuclease 8-like 2 (Homo sapiens)", "UNIT OF MEASURE": "%", "OBSERVED MEASUREMENT": -1.88}

====

Target: Methyl-CpG-binding domain protein 4 (Homo sapiens) (UniProt O95243);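 note: MBD4 activity read as fluorescence at 594 nm from cleavage and release of a quenched duplex DNA oligonucleotide, with APE1 coupled to incise the strand and raise turnover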
Sequence (O95243 whole entry, the tested form may be a part): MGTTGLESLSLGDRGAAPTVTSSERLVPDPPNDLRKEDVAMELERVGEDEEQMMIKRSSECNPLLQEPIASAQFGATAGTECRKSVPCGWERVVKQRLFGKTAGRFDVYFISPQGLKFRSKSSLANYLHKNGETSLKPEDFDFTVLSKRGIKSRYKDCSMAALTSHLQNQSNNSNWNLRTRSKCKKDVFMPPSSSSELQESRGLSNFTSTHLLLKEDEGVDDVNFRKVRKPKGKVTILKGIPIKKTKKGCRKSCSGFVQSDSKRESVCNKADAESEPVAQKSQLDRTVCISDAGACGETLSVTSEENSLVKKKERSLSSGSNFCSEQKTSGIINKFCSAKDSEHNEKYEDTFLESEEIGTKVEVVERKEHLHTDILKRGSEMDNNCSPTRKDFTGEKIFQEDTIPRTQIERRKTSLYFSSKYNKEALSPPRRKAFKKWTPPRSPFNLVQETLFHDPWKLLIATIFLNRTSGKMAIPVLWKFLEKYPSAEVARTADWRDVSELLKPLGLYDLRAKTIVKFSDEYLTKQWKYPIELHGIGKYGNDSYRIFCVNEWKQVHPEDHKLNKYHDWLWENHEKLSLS
Details: Compound Concentration 10.0 uM, Hit No
Description: Inhibition of MBD4 by quantifying inhibition of MBD4-mediated cleavage and dissociation of quenched duplex DNA oligonucleotides, measured as fluorescence at 594 nm. To generate a functional strand incision and increase turn-over this assay is coupled to APE1.
Each item that follows carries a reported inhibition.

{"MOLECULE": "O=C(O)CCCc1cc2cc(Cl)ccc2n1S(=O)(=O)c1ccc2ncsc2c1", "inhibition / %": 58.8}
{"MOLECULE": "FC(F)(F)c1ccccc1-c1cc(C(F)(F)F)c2[nH]c(C3=NOC4(CCCCC4)C3)nc2c1", "inhibition / %": 2.91}
{"MOLECULE": "CN1CCN(Cc2ccc(-c3cccc(C(=O)Nc4ccccc4CC(=O)O)c3)cc2)CC1", "inhibition / %": 18.1}
{"MOLECULE": "CCCCCC(O)/C=C/[C@H]1C(=O)CC(O)C1C/C=C\\CCCC(=O)O (some centres undefined)", "inhibition / %": 33.6}
{"MOLECULE": "CC1(C)Cc2c(CN3CCC4(CC3)CCN(C(=O)c3ccc(N)cn3)CC4)cccc2O1", "inhibition / %": 21.4}
{"MOLECULE": "CN(C)C(=O)N1CC[C@H](NC2=Nc3cc(F)ccc3N(CC(F)F)c3ccc(Cl)cc32)C1", "inhibition / %": -7.39}
{"MOLECULE": "COc1cc(-c2cn[nH]c2)ccc1C(=O)Nc1ccc2c(c1)CCNCC2", "inhibition / %": 13.6}
{"MOLECULE": "O=C(O)C1CN(Cc2ccc(OCc3ccc(Cl)c(Cl)c3)cc2)C1", "inhibition / %": 25}
{"MOLECULE": "COc1ccc2c(O[C@@H]3C[C@H]4C(=O)N[C@]5(C(=O)O)CC5/C=C\\CCCCC[C@H](NC(=O)OC5CCCC5)C(=O)N4C3)cc(-c3csc(NC(=O)C(C)C)n3)nc2c1C (some centres undefined)", "inhibition / %": 33.3}
{"MOLECULE": "COc1cccc([C@H](O)C2CCN(CCc3ccc(F)cc3)CC2)c1OC", "inhibition / %": 14.4}
{"MOLECULE": "C[C@H]1CN(C[C@H](Cc2ccccc2)C(=O)NCC(=O)O)CC[C@@]1(C)c1cccc(O)c1", "inhibition / %": 21.1}
{"MOLECULE": "CCCN(CCC)CCc1cccc2c1CC(=O)N2", "inhibition / %": 2.3}
{"MOLECULE": "N=C(N)NC(=O)Cc1c(Cl)cccc1Cl", "inhibition / %": -6.99}
{"MOLECULE": "Cc1cc([C@@H](C)Nc2cccc(-c3cc(C)c(C(=O)N[C@@H](C)C(=O)O)c(C)c3)c2)ccc1Cl", "inhibition / %": 41.7}
{"MOLECULE": "C(#Cc1cccc(CN2CCOCC2)c1)CCN1CCCCC1", "inhibition / %": 0.0339}
{"MOLECULE": "Cn1nc(C(=O)NCc2ccc(C(=O)O)cc2)cc1-c1ccc2[nH]ccc2c1", "inhibition / %": 70.9}
{"MOLECULE": "CCN(CC)CCCCC1CCN(CC(=O)N2c3ccccc3C(=O)Nc3cccnc32)CC1", "inhibition / %": -4.84}
{"MOLECULE": "COc1cc(OC2CCN(C(C)=O)CC2)ccc1C(=O)N1CCC(N2C(=O)OCc3ccccc32)CC1", "inhibition / %": 5.95}
{"MOLECULE": "COC[C@@H](c1ccc(C(F)(F)F)cc1)N1CCN(C2(C)CCN(C(=O)c3c(C)ncnc3C)CC2)C[C@@H]1C", "inhibition / %": 11.1}

All values here come from ChEMBL document CHEMBL5665443.
